B1: LexA_(DBDwt)-SehB-WT [Salmonella enterica serotype Typhimurium] / LexA_(DBDmut)-SehA [Salmonella enterica serotype Typhimurium] (parent)
chain 1: MRTHRQMDATSAKKIVDTFSDAVKTVPLMGEDRNDNEYRRALALVEFLVDHDDLENPLFELLCARISEYEKHAPEFKALNQHLEKTPPGVSVLRTLMDQYGLKAADLANELGSKSNVSNILNGRRALTVNHIKALTQRFKLPADAFIE
chain 2: MHVISRKPFNEAMLMYPNHELALTELLNVLEKKTFTQPEEMKRYIPSLDNFKYRDKWWVIDVSGNSLRLISYIDFRLHKIFVKHIVSHAEYDKLTAYYRGNKE

# Variants of: B1
# procedure_summary: LexA-based genetic system for heterodimerization (sulA-lacZ reporter, E. coli SU202)
# run_conditions: with LexA_(DBDmut)-SehA [Salmonella enterica serotype Typhimurium]; LB broth at 37°C to an OD600 nm of 1.0; 1 mM IPTG; parent: 750; read off a plot
Binary call on response: 1 (yes) from 800 U/mg upward, 0 (no) beneath that.

# check: response of chain 1 Y38A is greater than or equal to 800 U/mg
1 (yes)

Check the entry chain 1 I66A : does response equal or exceed 800 U/mg?
0 (no)

Test whether the variant chain 1 L127A records response of 800 U/mg or higher.
0 (no)

Reported response at or above 800 U/mg? chain 1 L135A
0 (no)

Check this variant for response at or above 800 U/mg: chain 1 L48A
1 (yes)

Please check the record chain 1 S113A and state if its response is at or above 800 U/mg.
0 (no)
